B1: FLAG-tagged FBXO44 FBA domain (FBXO44^FBA) [human] / RGS2^5–16 peptide (RGS2 degron, Met^5–Met^16) [not stated] (parent complex)
chain 1: FYFLRSLHRNLLHNPCAEEGFEFWSLDVNGGDEWKVEDLSRDQRKEFPNDQVKKYFVTSYYTCLKSQVVDLKAEGYWEELMDTTRPDIEVKDWFAARPDCGSKYQLCVQLLSSAHAPLGTFQPDPATIQQKSDAKWREVSHTFSNYPPGVRYIWFQHGGVDTHYWAGWYGPRVTNSSITIGP
chain 2: MFLAVQHDCRPM

variants of: B1; assay: peptide microarray (PEPperPRINT), α-FLAG fluorescence; three independent experiments with three technical replicates each; parent: 100; read off a plot
reportedEndpoint: percent of parent

Please review the entries below; each comes with its answer.
input: Param item = chain 2 P11H ; retrieve measured percent of parent.
output: ~85 % Parent

input: Item: chain 2 P11M
output: ~100 % Parent

input: Now try chain 2 P11T .
output: ~85 % Parent

input: And the next one, chain 2 P11Q ?
output: ~90 % Parent

input: Follow-up item: chain 2 P11G
output: ~68 % Parent

input: Now give it for chain 2 P11F too.
output: ~100 % Parent

input: Now this one: chain 2 P11L
output: ~82 % Parent

input: chain 2 P11N ?
output: ~85 % Parent

New cases:
input: // lookup percent of parent for chain 2 P11K
output: ~150 % Parent

input: What do you have for chain 2 P11S ?
output: ~100 % Parent

input: Cool, now chain 2 P11I
output: ~88 % Parent

input: Quick one: chain 2 P11A
output: ~72 % Parent

input: Same again, this time with chain 2 P11D
output: ~130 % Parent

input: Ok, now chain 2 P11R
output: ~260 % Parent

input: Again, but for chain 2 P11W
output: ~110 % Parent

input: Same question, chain 2 P11C this time
output: ~120 % Parent

input: // repeat for chain 2 P11E and report
output: ~88 % Parent

input: Could you do the same for chain 2 P11Y , please?
output: ~110 % Parent

input: What about chain 2 P11V ?
output: ~85 % Parent
